test system: UACC-62 melanoma; experiment: NCI-60 one-dose screen, 48 h; details: 10 µM unless noted
Compounds without any hit were thinned out: in the full panel of roughly 83,000, 20% have a hit. Activity calls are given as the source filed them. Rule for the calls: active = growth percent below 10; inactive = the rest.
Output constraint: value belongs to 1 = active, 0 = inactive

Reference set (2 entries):
Fill in: this test's call for NS(=O)(=O)c1ccc(C(=O)N=Nc2c(O)[nH]c3ccc(Cl)cc23)cc1 is ___
0

Fill in: this test's call for Fc1cccc(-c2nc(-c3c[nH]c4ncccc34)cs2)c1 is ___
0

Others:
Fill in: this test's call for CCOC(=O)c1c(NC(=O)c2ccccc2)sc2c3c(ccc12)OCN(C)C3 is ___
1

Fill in: this test's call for Nc1[nH]nc2nc(-c3ccccc3)n3c4ccccc4nc3c12 is ___
0
